tested on: K562; assay: MTT cytotoxicity assay in K562 cells; type: cell-based; conditions: Table 1; MTT assay after 48 h treatment; citrate
Counter-ions that a name gives are not always drawn.
readout-kind: IC50

Enquiry: Can you share its IC50? I mean this compound: CCN(CC)CCO/N=C(/c1ccc(SC)cc1)c1cccc2ccccc12 [Compound 5i, citrate]
Return: > 30 µM

* * *

system: HCT116; assay: Sulphorhodamine B assay in HCT116 colon cancer cells; assay type: cell-based; conditions: Homo sapiens, HCT-116; SRB assay
Structures can show the parent of a compound that is named as a salt.
readout-kind: pIC50
Answers are plain numbers, as −log10 of the molar value.

Enquiry: Can you share its pIC50? I mean this compound: CCN(CC)CCO/N=C(/c1ccc(SC)cc1)c1cccc2ccccc12 [Compound 5d, oxalate]
Return: 5.11

* * *

Consider the following compounds; for each one, report its melting point.
Counter-ions that a name gives are not always drawn.
One number for each entry, in °C.

Here's what some known entries look like.
Enquiry: Can you share its melting point? I mean this compound: CSc1ccc(/C(=N/OCCN(C)C)c2cccc3ccccc23)cc1 (as salt: oxalate) [Compound 5c]
Return: 105

Enquiry: Can you share its melting point? I mean this compound: CSc1ccc(/C(=N/OCCCN2CCCCC2)c2cccc3ccccc23)cc1 (as salt: oxalate) [Compound 7a]
Return: 137

Okay, next one:
Enquiry: Can you share its melting point? I mean this compound: CCN(CC)CCO/N=C(/c1ccc(OC)cc1)c1cccc2ccccc12 (as salt: oxalate) [Compound 6d]
Return: 137

* * *

test system: NIH3T3; assay: MTT cytotoxicity assay in NIH3T3 fibroblasts; format: cell-based, mouse; conditions: Table 1; MTT assay after 48 h treatment; fumarate
Counter-ions that a name gives are not always drawn.
readout-kind: IC50
Quick note: number first, unit second.

Enquiry: Can you share its IC50? I mean this molecule: CCN(CC)CCO/N=C(/c1ccc(SC)cc1)c1cccc2ccccc12 [Compound 5j, fumarate]
Return: 25 µM

* * *

system: NIH3T3; assay: MTT cytotoxicity assay in NIH3T3 fibroblasts; type: cell-based, mouse; details: Table 2; normal cell line; fumarate
Counter-ions that a name gives are not always drawn.
readout-kind: IC50
Quick note: number first, unit second.

Enquiry: Can you share its IC50? I mean this molecule: CCN(CC)CCO/N=C(/c1ccc(SC)cc1)c1cccc2ccccc12 [Compound 5j, fumarate]
Return: 25 µM

* * *

system: MCF-7; assay: MTT assay in MCF-7 breast tumor cells; assay type: cell-based; settings: Homo sapiens, MCF7, Table 6, 48 h, 10 point dose response
Structures can show the parent of a compound that is named as a salt.
readout-kind: pIC50
One number for each entry, as −log10 of the molar value.

Here's what some known entries look like.
Enquiry: Can you share its pIC50? I mean this compound: COc1ccc(/C(=N/OCCN(C)C)c2cccc3ccccc23)cc1 [Compound 6c, oxalate]
Return: 4.82

Enquiry: Can you share its pIC50? I mean this compound: COc1ccc(/C(=N/OCCN(C(C)C)C(C)C)c2cccc3ccccc23)cc1 [Compound 6e, oxalate]
Return: 4.64

Enquiry: Can you share its pIC50? I mean this compound: CSc1ccc(/C(=N/OCCN2CCCCC2)c2cccc3ccccc23)cc1 [Compound 5a, oxalate]
Return: 4.87

Enquiry: Can you share its pIC50? I mean this compound: COc1ccc(/C(=N/OCCCN(C)C)c2cccc3ccccc23)cc1 [Compound 6i, oxalate]
Return: 4.69

Enquiry: Can you share its pIC50? I mean this compound: CSc1ccc(/C(=N/OCCCN(C)C)c2cccc3ccccc23)cc1 [Compound 5m, oxalate]
Return: 5.10

# return pIC50 for each item in the list
1. CSc1ccc(/C(=N/OCCCN2CCCCC2)c2cccc3ccccc23)cc1 [Compound 7a, oxalate]
2. CCN(CC)CCO/N=C(/c1ccc(SC)cc1)c1cccc2ccccc12 [Compound 5d, oxalate]
3. CSc1ccc(/C(=N/OCCN2CCCC2)c2cccc3ccccc23)cc1 [Compound 5b, oxalate]

Return:
5.30
5.12
5.18

* * *

test system: HL60; assay: MTT cytotoxicity assay in HL-60 cells; format: cell-based; conditions: Homo sapiens, HL-60, Table 2
Structures can show the parent of a compound that is named as a salt.
readout-kind: IC50 (µM)
Numbers only, in µM.

Enquiry: Can you share its IC50? I mean this molecule: CSc1ccc(/C(=N/OCCCN(C)C)c2cccc3ccccc23)cc1 [Compound 5m, oxalate]
Return: 7.78

---
Enquiry: Can you share its IC50? I mean this molecule: CCN(CC)CCO/N=C(/c1ccc(SC)cc1)c1cccc2ccccc12 [Compound 5d, oxalate]
Return: 5.99

* * *

test system: HL60; assay: MTT cytotoxicity assay in HL-60 cells; type: cell-based; details: Homo sapiens, HL-60, 48 h, Table 1; MTT assay after 48 h treatment
pIC50: −log10 of the molar value. Structures can show the parent of a compound that is named as a salt.
readout-kind: pIC50

Here's what some known entries look like.
Enquiry: Can you share its pIC50? I mean this compound: COc1ccc(/C(=N/OCCN2CCCCCC2)c2cccc3ccccc23)cc1 [Compound 6g, oxalate]
Return: < 4.30

Enquiry: Can you share its pIC50? I mean this compound: CSc1ccc(/C(=N/OCCCCN2CCCC2)c2cccc3ccccc23)cc1
Return: < 4.30

Enquiry: Can you share its pIC50? I mean this compound: CSc1ccc(/C(=N/OCCN(C)C)c2cccc3ccccc23)cc1 [Compound 5c, oxalate]
Return: < 4.30

# return pIC50 for each item in the list
1. CSc1ccc(/C(=N/OCCN2CCCCC2)c2cccc3ccccc23)cc1 [Compound 5a, oxalate]
2. COc1ccc(/C(=N/OCCN2CCOCC2)c2cccc3ccccc23)cc1
3. COc1ccc(/C(=N/OC(C)CN(C)C)c2cccc3ccccc23)cc1 (centres unmarked) [Compound 6f, oxalate]
4. CSc1ccc(/C(=N/OCCCN2CCCCC2)c2cccc3ccccc23)cc1 [Compound 7a, oxalate]
5. CCCCN(C)CCCO/N=C(/c1ccc(SC)cc1)c1cccc2ccccc12

Return:
["< 4.70", "< 4.30", "< 4.30", "< 4.30", 4.89]

# return pIC50 for each item in the list
1. CSc1ccc(/C(=N/OCCCCNCCc2ccccc2)c2cccc3ccccc23)cc1
2. COc1ccc(/C(=N/OCCN(C)C)c2cccc3ccccc23)cc1 [Compound 6c, oxalate]
3. CSc1ccc(/C(=N/O)c2cccc3ccccc23)cc1
4. CSc1ccc(/C(=N/OCCCN2CCC(C)CC2)c2cccc3ccccc23)cc1 [Compound 7c, oxalate]
5. CCN(CC)C(=O)CO/N=C(/c1ccc(SC)cc1)c1cccc2ccccc12

Return:
1: < 4.30; 2: < 4.30; 3: < 4.30; 4: < 4.30; 5: < 4.30

* * *

biological target: EGFR (Homo sapiens, UniProt P00533); construct: Serum starved (A,C) MCF-7 cells and (B,D) MDA-MB231 cells were pre-incubated for 1 h; endogenous in cells; host or cells: MCF-7; experiment: EGF dependent EGFR phosphorylation ELISA in MCF-7 cells; format: cell-based; settings: EGF stimulated, Tyr1068, ELISA, read-out: IC50 in terms of EGFR phosphorylation
Sequence (P00533 25-1210): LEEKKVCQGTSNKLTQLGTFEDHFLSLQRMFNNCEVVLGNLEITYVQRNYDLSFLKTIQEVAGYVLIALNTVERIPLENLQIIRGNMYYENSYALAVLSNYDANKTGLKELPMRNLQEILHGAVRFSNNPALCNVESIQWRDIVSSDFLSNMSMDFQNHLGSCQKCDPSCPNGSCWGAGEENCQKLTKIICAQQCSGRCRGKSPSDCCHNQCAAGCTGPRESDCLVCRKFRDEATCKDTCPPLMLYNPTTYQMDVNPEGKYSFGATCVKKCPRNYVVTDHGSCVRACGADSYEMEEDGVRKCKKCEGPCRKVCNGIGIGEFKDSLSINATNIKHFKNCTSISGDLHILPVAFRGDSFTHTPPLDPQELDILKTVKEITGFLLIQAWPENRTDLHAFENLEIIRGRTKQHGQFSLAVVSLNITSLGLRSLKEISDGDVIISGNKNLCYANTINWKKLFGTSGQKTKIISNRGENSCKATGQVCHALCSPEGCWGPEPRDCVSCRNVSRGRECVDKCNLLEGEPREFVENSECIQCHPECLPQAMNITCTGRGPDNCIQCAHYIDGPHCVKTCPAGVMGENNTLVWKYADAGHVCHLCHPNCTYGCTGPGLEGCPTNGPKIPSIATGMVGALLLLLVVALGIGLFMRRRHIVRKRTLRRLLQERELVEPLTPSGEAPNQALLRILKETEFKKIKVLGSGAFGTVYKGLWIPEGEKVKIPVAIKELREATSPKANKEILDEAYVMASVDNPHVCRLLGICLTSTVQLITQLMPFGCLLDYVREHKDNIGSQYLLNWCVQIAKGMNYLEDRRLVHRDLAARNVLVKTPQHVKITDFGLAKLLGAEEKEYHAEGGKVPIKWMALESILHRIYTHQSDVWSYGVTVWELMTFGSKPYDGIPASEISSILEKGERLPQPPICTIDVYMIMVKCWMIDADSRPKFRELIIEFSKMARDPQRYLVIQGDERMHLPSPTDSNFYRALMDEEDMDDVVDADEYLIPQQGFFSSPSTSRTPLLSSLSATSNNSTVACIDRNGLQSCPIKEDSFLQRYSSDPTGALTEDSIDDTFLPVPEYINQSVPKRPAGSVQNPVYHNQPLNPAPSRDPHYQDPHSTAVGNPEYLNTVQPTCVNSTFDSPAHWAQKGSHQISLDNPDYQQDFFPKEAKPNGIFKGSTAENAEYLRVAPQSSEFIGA
Counter-ions that a name gives are not always drawn.
readout-kind: pIC50
Numbers only, as −log10 of the molar value.

Enquiry: Can you share its pIC50? I mean this compound: CCN(CC)CCO/N=C(/c1ccc(SC)cc1)c1cccc2ccccc12 [Compound 5d, oxalate]
Return: 7.83

* * *

test system: DU-145; assay: MTT assay in DU-145 prostate tumor cells; assay type: cell-based; settings: Homo sapiens, DU-145, Table 6, 48 h, 10 point dose response
Counter-ions that a name gives are not always drawn.
Friendly reminder: IC50 below 10 µM is t, at or above is f.

Look over these answered cases.
Enquiry: Is 10 µM strictly greater than the compound's reported IC50? compound: COc1ccc(/C(=N/OCCN2CCCC2)c2cccc3ccccc23)cc1 [Compound 6b, oxalate]
Return: f

Enquiry: Is 10 µM strictly greater than the compound's reported IC50? compound: CSc1ccc(/C(=N/OCCCN2CCCCC2)c2cccc3ccccc23)cc1 [Compound 7a, oxalate]
Return: f

Enquiry: Is 10 µM strictly greater than the compound's reported IC50? compound: CSc1ccc(/C(=N/O)c2cccc3ccccc23)cc1
Return: f

---
Enquiry: Is 10 µM strictly greater than the compound's reported IC50? compound: CSc1ccc(/C(=N/OCCN(C)C)c2cccc3ccccc23)cc1 [Compound 5c, oxalate]
Return: f

Enquiry: Is 10 µM strictly greater than the compound's reported IC50? compound: CCN(CC)CCO/N=C(/c1ccc(SC)cc1)c1cccc2ccccc12 [Compound 5d, oxalate]
Return: t

* * *

Consider the following molecules; for each one, report its melting point.
Where a name gives a salt, the structure may show the parent alone.

Enquiry: Can you share its melting point? I mean this molecule: COc1ccc(/C(=N/OCCN(C)C)c2cccc3ccccc23)cc1 (as salt: oxalate)
Return: 141 °C

Enquiry: Can you share its melting point? I mean this molecule: CSc1ccc(/C(=N/OCCCN2CCC(C)CC2)c2cccc3ccccc23)cc1 (as salt: oxalate)
Return: 145 °C

Enquiry: Can you share its melting point? I mean this molecule: CSc1ccc(/C(=N/OCCCN(C)C)c2cccc3ccccc23)cc1 (as salt: oxalate)
Return: 110 °C

Enquiry: Can you share its melting point? I mean this molecule: CSc1ccc(/C(=N/OCCN2CCCCCC2)c2cccc3ccccc23)cc1 (as salt: oxalate)
Return: 145 °C

Enquiry: Can you share its melting point? I mean this molecule: CSc1ccc(/C(=N/O)c2cccc3ccccc23)cc1
Return: 135 °C

Enquiry: Can you share its melting point? I mean this molecule: CSc1ccc(/C(=N/OCCCN2CCOCC2)c2cccc3ccccc23)cc1
Return: 89 °C

Enquiry: Can you share its melting point? I mean this molecule: COc1ccc(/C(=N/O)c2cccc3ccccc23)cc1
Return: 132 °C

Enquiry: Can you share its melting point? I mean this molecule: CSc1ccc(/C(=N/OCCN2CCCCC2)c2cccc3ccccc23)cc1 (as salt: oxalate)
Return: 155 °C

Enquiry: Can you share its melting point? I mean this molecule: COc1ccc(/C(=N/OCCN(C(C)C)C(C)C)c2cccc3ccccc23)cc1 (as salt: oxalate)
Return: 130 °C

Enquiry: Can you share its melting point? I mean this molecule: CSc1ccc(/C(=N/OCCN2CCCC2)c2cccc3ccccc23)cc1 (as salt: oxalate)
Return: 153 °C

# return melting point for each item in the list
1. COc1ccc(/C(=N/OCCN2CCCCCC2)c2cccc3ccccc23)cc1 (as salt: oxalate)
2. COc1ccc(/C(=N/OCCCN(C)C)c2cccc3ccccc23)cc1 (as salt: oxalate)
3. COc1ccc(/C(=N/OCCN2CCCCC2)c2cccc3ccccc23)cc1 (as salt: oxalate)

Return:
1: 122 °C; 2: 155 °C; 3: 171 °C

# return melting point for each item in the list
1. COc1ccc(/C(=N/OCCN2CCCC2)c2cccc3ccccc23)cc1 (as salt: oxalate)
2. CSc1ccc(/C(=N/OC(C)CN(C)C)c2cccc3ccccc23)cc1 (stereo not shown) (as salt: oxalate)
3. COc1ccc(/C(=N/OC(C)CN(C)C)c2cccc3ccccc23)cc1 (stereo not shown) (as salt: oxalate)

Return:
["158 °C", "101 °C", "105 °C"]

Data provenance is patent US9994515B2.
